test: Oral bioavailability in rhesus monkey at 2 mg/kg; assay type: ADME, organism-based, Macaca mulatta; conditions: in vivo
measured-metric: bioavailability (%)
Numbers only, in %.

Name the reported bioavailability value associated with the compound "COc1ncc(-c2ccc(C(=O)O)cc2C)cc1-c1ccc(C(F)(F)F)cc1[C@@H]1CC[C@H]2[C@@H](c3cc(C(F)(F)F)cc(C(F)(F)F)c3)OC(=O)N12"
8.4

###

assay: Oral bioavailability in fasted dog at 1 mg/kg in 0.5% methocel; assay type: ADME, organism-based, Canis lupus familiaris; conditions: in vivo
measured-metric: bioavailability

Need bioavailability of "COc1ncc(-c2ccc(C(=O)O)cc2C)cc1-c1ccc(C(F)(F)F)cc1[C@@H]1CC[C@H]2[C@@H](c3cc(C(F)(F)F)cc(C(F)(F)F)c3)OC(=O)N12" , thanks.
14%
